# measuredTarget: Recombinant human His-tagged Kat6a protein (amino acids 194-810) (Homo sapiens (Human), UniProt Q92794)
# Sequence (Q92794 194-810): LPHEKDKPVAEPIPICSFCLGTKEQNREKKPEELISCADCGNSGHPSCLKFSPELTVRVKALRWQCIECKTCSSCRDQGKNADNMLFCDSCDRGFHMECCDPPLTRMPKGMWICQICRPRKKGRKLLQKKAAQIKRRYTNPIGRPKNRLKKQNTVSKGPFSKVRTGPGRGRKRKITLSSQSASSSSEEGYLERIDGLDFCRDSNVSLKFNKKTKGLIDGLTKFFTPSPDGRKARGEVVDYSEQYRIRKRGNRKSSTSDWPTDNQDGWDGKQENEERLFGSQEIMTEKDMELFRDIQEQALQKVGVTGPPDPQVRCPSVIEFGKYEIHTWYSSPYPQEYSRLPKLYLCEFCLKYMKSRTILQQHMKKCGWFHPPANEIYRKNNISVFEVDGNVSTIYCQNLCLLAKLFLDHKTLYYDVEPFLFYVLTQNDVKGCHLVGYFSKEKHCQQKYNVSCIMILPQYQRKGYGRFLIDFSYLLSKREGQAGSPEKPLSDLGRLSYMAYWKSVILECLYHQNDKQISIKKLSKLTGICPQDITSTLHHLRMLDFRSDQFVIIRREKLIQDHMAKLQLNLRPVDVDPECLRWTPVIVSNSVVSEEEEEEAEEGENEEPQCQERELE
# experimentalProtocol: Kat6a activity assay (TR-FRET, acetylation of biotinylated Histone-H4-derived peptide)
# Type: biochemical
# condition: 60 mins at 22° C., read-out: KAT6A-DPF/HAT domain IC50 [mol/l] (arithmetic mean)
reportedMetric: IC50 (nM)
Quick note: give the figure in nM, leave out the unit.

Exercise: Reported IC50, molecule CN(C)c1ccc2cc(C(=O)NS(=O)(=O)c3ccc(F)c(F)c3F)oc2c1 : ____
Key: 906

Exercise: Quick one: IC50 of CCc1ccc2nc(C)c(S(=O)(=O)NC(=O)c3cc4ccc(N(C)C)cc4o3)n2n1 ?
Key: 287

Exercise: Which IC50 is reported for this molecule? CN(C)c1ccc2cc(C(=O)NS(=O)(=O)c3ccc(N)c4cccnc34)oc2c1
Key: 56.4

Exercise: Which IC50 value belongs to CN(C)c1ccc2cc(C(=O)NS(=O)(=O)c3cc(C(C)(C)C)ccc3OCC3CC3)oc2c1 ?
Key: 4.36

Exercise: Find the recorded IC50 belonging to Cc1cc(N(C)C)cc2oc(C(=O)NS(=O)(=O)c3ccccc3-c3ccccc3)cc12 and report it.
Key: 452

Exercise: Quick one: IC50 of CN(C)c1ccc2cc(C(=O)NS(=O)(=O)c3cc(CO)ccc3OC(F)(F)F)oc2c1 ?
Key: 6770

Exercise: Which value of IC50 has been reported for CC(C)COc1ccccc1S(=O)(=O)NC(=O)c1cc2ccc(N(C)C)cc2o1 in the records?
Key: 88.7

Exercise: What IC50 value was documented for this molecule, Cc1ccc2cccc(S(=O)(=O)NC(=O)c3cc4cc(Br)c(N(C)C)cc4o3)c2n1 ?
Key: 2050

Exercise: Entry under review: CN(C)c1ccc2cc(C(=O)NS(=O)(=O)c3ccccc3Cl)oc2c1 . Reported IC50?
Key: 219

Exercise: Look at this molecule and give its reported IC50. COc1ccccc1S(=O)(=O)NC(=O)c1cc2c(F)cc(N(C)C)cc2o1
Key: 17.7

Exercise: IC50 lookup needed for CN(C)c1ccc2cc(C(=O)NS(=O)(=O)c3cc(C(C)(C)C)ccc3OCC(F)(F)F)oc2c1 , thanks.
Key: 11.8

Exercise: Need IC50 of CN(C)c1cc(C(F)(F)F)c2cc(C(=O)NS(=O)(=O)c3ccccc3)oc2c1 , thanks.
Key: 44.9

Exercise: Look up IC50 for this molecule: CC(C)Nc1cccc(F)c1S(=O)(=O)NC(=O)c1cc2ccc(N(C)C)cc2o1
Key: 932

Exercise: Any idea what IC50 was measured for CN(C)c1ccc2cc(C(=O)NS(=O)(=O)Cc3ccccn3)oc2c1 ?
Key: 3200

Exercise: Please look up its IC50: CN(C)c1ccc2cc(C(=O)NS(=O)(=O)c3ccccc3-c3ccccc3)oc2c1F
Key: 2980

Exercise: Item under review: CN(c1ccccc1)c1ccc2cc(C(=O)NS(=O)(=O)c3ccccc3-c3ccccc3)oc2c1 . Reported IC50?
Key: 900

Exercise: Which IC50 is listed for CCOc1cc(F)ccc1S(=O)(=O)NC(=O)c1cc2ccc(N(C)C)cc2o1 ?
Key: 94.9

====

Provide the recorded pIC50 for the entries that follow.
# measuredTarget: Recombinant human GST-tagged Kat6b protein (431-end)
# experimentalProtocol: Kat6b activity assay (TR-FRET, acetylation of biotinylated Histone-H4-derived peptide)
# condition: 30 mins at 22° C., read-out: KAT6B activity assay IC50 [mol/l] (arithmetic mean)
Answer as the number alone; pIC50 is minus log10 of concentration in mol/L.

Exercise: So what pIC50 did CN(C)c1ccc2cc(C(=O)NS(=O)(=O)c3cc(C(C)(C)C)ccc3OCC(F)(F)F)oc2c1 get with Recombinant human GST-tagged Kat6b protein (431-end)?
Key: 7.36

Exercise: Identify the measured pIC50 of CCOc1ccc(Br)cc1S(=O)(=O)NC(=O)c1cc2c(F)cc(N(C)C)cc2o1 for Recombinant human GST-tagged Kat6b protein (431-end).
Key: 8.14

Exercise: Give the reported pIC50 for COc1cc(C)c(Cl)cc1S(=O)(=O)NC(=O)c1cc2ccc(N(C)C)cc2o1 (system: Recombinant human GST-tagged Kat6b protein (431-end)).
Key: 7.10

Exercise: Record COc1ccc(Cl)cc1S(=O)(=O)NC(=O)c1cc2ccc(N(C)C)cc2o1 : what is its pIC50 with Recombinant human GST-tagged Kat6b protein (431-end)?
Key: 6.42

Exercise: Query the reported pIC50 for Recombinant human GST-tagged Kat6b protein (431-end); item: COc1ccc2cccnc2c1S(=O)(=O)NC(=O)c1cc2ccc(N(C)C)cc2o1
Key: 6.96

Exercise: API: value(readout= pIC50, system= Recombinant human GST-tagged Kat6b protein (431-end), query= CCOc1ccccc1S(=O)(=O)NC(=O)c1cc2ccc(N(C)C)cc2o1 [Example 19] )
Key: 7.17

Exercise: GET /values?readout=pIC50&system=Recombinant human GST-tagged Kat6b protein (431-end)&item= CC(C)Oc1ccccc1S(=O)(=O)NC(=O)c1cc2ccc(N(C)C)cc2o1 [Example 66]
Key: 7.23

Exercise: Value wanted: pIC50 (Recombinant human GST-tagged Kat6b protein (431-end)) of entry Cc1ccccc1S(=O)(=O)NC(=O)c1cc2ccc(N(C)C)cc2o1
Key: 6.37

Exercise: Request - read-out pIC50 | tested on Recombinant human GST-tagged Kat6b protein (431-end) | compound COc1ccc(Cl)c(S(=O)(=O)NC(=O)c2cc3ccc(N(C)C)cc3o2)c1
Key: 6.43

Exercise: Form field - read-out: pIC50; system: Recombinant human GST-tagged Kat6b protein (431-end); submitted item: CC(C)Cc1ccc2cccc(S(=O)(=O)NC(=O)c3cc4ccc(N(C)C)cc4o3)c2n1
Key: 6.76

Exercise: Hi! What's the reported pIC50 for CN(C)c1ccc2cc(C(=O)NS(=O)(=O)c3ccccc3Oc3ccccc3)oc2c1 on Recombinant human GST-tagged Kat6b protein (431-end)?
Key: 6.73

Exercise: Form field - read-out: pIC50; system: Recombinant human GST-tagged Kat6b protein (431-end); submitted item: CN(C)c1ccc2cc(C(=O)NS(=O)(=O)c3ccccc3OC3COC3)oc2c1
Key: 6.58

Exercise: Fill in the recorded pIC50 for this compound, with Recombinant human GST-tagged Kat6b protein (431-end) as test system: CN(C)c1ccc2cc(C(=O)NS(=O)(=O)c3cccc4cccnc34)oc2c1
Key: 7.11

Exercise: Quick check: pIC50 on Recombinant human GST-tagged Kat6b protein (431-end), item CN(C)c1cc(C(F)(F)F)c2cc(C(=O)NS(=O)(=O)c3ccccc3-c3ccccc3)oc2c1 ?
Key: 7.89

Exercise: Could you share what pIC50 was measured for O=C(NS(=O)(=O)c1ccccc1-c1ccccc1)c1cc2ccc(N3CCCC3)cc2o1 , tested on Recombinant human GST-tagged Kat6b protein (431-end)?
Key: 5.83

Exercise: Can you look up pIC50 on Recombinant human GST-tagged Kat6b protein (431-end) for CCc1cccc(OC)c1S(=O)(=O)NC(=O)c1cc2ccc(N(C)C)cc2o1 ?
Key: 7.16

====

# System: DMS 53 cells
# experimentalProtocol: Proliferation assay DMS 53 (Alamar Blue, 144 h)
# Type: cell-based
# condition: Homo sapiens, DMS53, small cell lung cancer, read-out: proliferation assays
reportedMetric: EC50 (nM)
The reply should contain only the number, in nM.

Exercise: For CCOc1ccccc1S(=O)(=O)NC(=O)c1cc2ccc(N(C)C)cc2o1 , what is its reported EC50?
Key: 130

Exercise: Look up EC50 for this compound: CCCOc1ccccc1S(=O)(=O)NC(=O)c1cc2ccc(N(C)C)cc2o1
Key: 367

Exercise: Quick check: EC50 of CN(C)c1ccc2cc(C(=O)NS(=O)(=O)c3ccccc3-c3ccccc3)oc2c1 ?
Key: 490

====

# measuredTarget: Recombinant human His-tagged Kat6a protein (amino acids 194-810) (Homo sapiens (Human))
# experimentalProtocol: Kat6a activity assay (TR-FRET, acetylation of biotinylated Histone-H4-derived peptide)
# condition: 60 mins at 22° C., read-out: KAT6A-DPF/HAT domain IC50 [mol/l] (arithmetic mean)
Threshold-based label: IC50 under 200 nM gives 1.0, IC50 not under 200 nM gives 0.0.

Exercise: Hello, is IC50 of the following molecule strictly smaller than 200 nM? CN(C)c1ccc2cc(C(=O)NS(=O)(=O)C3CCOCC3)oc2c1
Key: 0.0

Exercise: Below 200 nM on IC50? Entry CCNc1ccc2cc(C(=O)NS(=O)(=O)c3ccccc3-c3ccccc3)oc2c1
Key: 0.0

Exercise: Determine if CCNc1ccc2cc(C(=O)NS(=O)(=O)c3cccc4ccc(C)nc34)oc2c1 shows IC50 strictly lower than 200 nM.
Key: 1.0

Exercise: For this molecule, is IC50 lower than 200 nM? CNc1ccc2cc(C(=O)NS(=O)(=O)c3ccccc3-c3ccccc3)oc2c1
Key: 1.0

Exercise: is_below(IC50, 200 nM) for CCOc1ccc([N+](=O)[O-])cc1S(=O)(=O)NC(=O)c1cc2ccc(N(C)C)cc2o1 ?
Key: 1.0

Exercise: Lab note: confirm whether the reported IC50 for this molecule is below 200 nM, equality not counting. molecule: CCOc1ccccc1S(=O)(=O)NC(=O)c1cc2ccc(N(C)C)cc2o1 [Example 223]
Key: 1.0

Exercise: For this molecule, is IC50 lower than 200 nM? CN(C)c1ccc2cc(C(=O)NS(=O)(=O)c3ccccc3-c3cccc(Cl)c3)oc2c1
Key: 1.0

Exercise: Given the entry CCc1cccc(OC)c1S(=O)(=O)NC(=O)c1cc2ccc(N(C)C)cc2o1 , would its reported IC50 be below 200 nM?
Key: 1.0

Exercise: Consider the molecule CCOc1cccc(Br)c1S(=O)(=O)NC(=O)c1cc2ccc(N(C)C)cc2o1 . Is its IC50 strictly less than 200 nM?
Key: 1.0

Exercise: A record lists CCOC(=O)N1CCC(S(=O)(=O)NC(=O)c2cc3ccc(N(C)C)cc3o2)CC1 . Is its IC50 below 200 nM?
Key: 0.0

Exercise: Answer whether the molecule CC(C)Nc1ncc(Br)cc1S(=O)(=O)NC(=O)c1cc2ccc(N(C)C)cc2o1 has IC50 strictly less than 200 nM
Key: 0.0

Exercise: hey, is IC50 for Cc1ccc2cccc(S(=O)(=O)NC(=O)c3cc4c(F)cc(N(C)C)cc4o3)c2n1 [Example 108] lower than 200 nM or not?
Key: 1.0

Exercise: Report whether reported IC50 is lower than 200 nM (strictly) for CN(C)c1ccc2cc(C(=O)NS(=O)(=O)c3ccccc3OCC(F)F)oc2c1
Key: 1.0

Exercise: Just wondering, is IC50 of CN(C)c1ccc2cc(C(=O)NS(=O)(=O)c3ccccc3OC(F)F)oc2c1 below 200 nM?
Key: 1.0

Exercise: Would you kindly verify if IC50 of CN(C)c1ccc2cc(C(=O)NS(=O)(=O)c3ccccc3C#N)oc2c1 is strictly less than 200 nM?
Key: 0.0

Exercise: Here's an entry: CCOc1ccncc1S(=O)(=O)NC(=O)c1cc2ccc(N(C)C)cc2o1 . Is its IC50 below 200 nM?
Key: 0.0

Exercise: Determine if CCOc1ccc(I)cc1S(=O)(=O)NC(=O)c1cc2ccc(N(C)C)cc2o1 shows IC50 strictly lower than 200 nM.
Key: 1.0

This collection of values is drawn from patent US12357603B2.
